B1: NR2F2 (parent)
chain: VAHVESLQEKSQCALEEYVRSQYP

- Variants of: B1
- PROTOCOL: protein stability index of a GFP-peptide fusion (GPS, HEK-293T) (PSI 1-6); higher = more stable;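 further: lentivirally expressed fusions sorted by FACS into six bins by GFP to DsRed ratio, PSI derived from sequencing read proportions per bin multiplied by bin number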
- REPORTED CONDITIONS: c terminus: a fixed tail appended
# protein stability index >= 4 gives met, anything below gives not met

See these solved cases before continuing.
{"MACROMOLECULE SEQUENCE": "VAHVESLQEKSQCAVEEYVRSQYP", "CATEGORY LABEL": "met"}
{"MACROMOLECULE SEQUENCE": "VAHVESLQEKSQCALEEYVRSDYP", "CATEGORY LABEL": "met"}
{"MACROMOLECULE SEQUENCE": "VAHVESLTEKSQCALEEYVRSQYP", "CATEGORY LABEL": "not met"}
{"MACROMOLECULE SEQUENCE": "VAHVESLQEKSQCALEEHVRSQYP", "CATEGORY LABEL": "met"}
{"MACROMOLECULE SEQUENCE": "VAHVESLQEKSQCAEEEYVRSQYP", "CATEGORY LABEL": "met"}
{"MACROMOLECULE SEQUENCE": "VAHVESLNEKSQCALEEYVRSQYP", "CATEGORY LABEL": "not met"}
{"MACROMOLECULE SEQUENCE": "VAHVESLQCKSQCALEEYVRSQYP", "CATEGORY LABEL": "not met"}
{"MACROMOLECULE SEQUENCE": "VAHVEYLQEKSQCALEEYVRSQYP", "CATEGORY LABEL": "not met"}
{"MACROMOLECULE SEQUENCE": "VAHVESLQEQSQCALEEYVRSQYP", "CATEGORY LABEL": "not met"}
{"MACROMOLECULE SEQUENCE": "VAHVESWQEKSQCALEEYVRSQYP", "CATEGORY LABEL": "not met"}

Problem: Could you tell me if the measured protein stability index of VAHVESEQEKSQCALEEYVRSQYP reaches 4 or more?
Solution: met

Problem: Here is the next variant: FAHVESLQEKSQCALEEYVRSQYP
Solution: not met

Problem: // same read-out, input: VAHVESLQEKSQCALCEYVRSQYP
Solution: not met

Problem: One more variant: VAHVESLQEKSFCALEEYVRSQYP
Solution: not met

Problem: Field entry: VAHVESLQEKSQCALEEYVRSFYP
Solution: not met

Problem: Try the variant VAHVSSLQEKSQCALEEYVRSQYP
Solution: not met

Problem: Please give the result for VAHVESLQEKSQCALEEYVRSQVP too.
Solution: not met
